# tested_system: T1, human IL-18 binding protein (human, UniProt O95998 31-194); also: unit not given here
# T1 sequence (looked up): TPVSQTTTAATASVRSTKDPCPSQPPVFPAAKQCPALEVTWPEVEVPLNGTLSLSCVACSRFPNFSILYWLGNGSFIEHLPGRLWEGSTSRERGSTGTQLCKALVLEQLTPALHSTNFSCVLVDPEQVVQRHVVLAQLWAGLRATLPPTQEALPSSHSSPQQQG
# assay_text: cell-based or functional assay
readout_type: HEK-Blue activity, +100 nM BP, DF-1,000,000

# binder, value_reported
measured = [
    ("yeast display IL-18 variant K53S, S55K (ligand) YFGKLESKLSVIRNLNDQVLFIDQGNRPLFEDMTDSDMRDNAPRTIFIISMYSDKQPRGMAVTISVKSEKISTLSSENKIISFKEMNPPDNIKDTKSDIIFFQRSVPGHDNKMQFESSSYEGYFLASEKERDLFKLILKKEDELGDRSIMFTVQNED", 0.53),
    ("yeast display IL-18 variant K53S, S55F, R104K, H109Y (ligand) YFGKLESKLSVIRNLNDQVLFIDQGNRPLFEDMTDSDMRDNAPRTIFIISMYSDFQPRGMAVTISVKSEKISTLSSENKIISFKEMNPPDNIKDTKSDIIFFQKSVPGYDNKMQFESSSYEGYFLASEKERDLFKLILKKEDELGDRSIMFTVQNED", 0.09),
]

Data provenance is patent US20240182536A1.
